assay: Inhibition of C3b activation relative to compstatin
Positions of bridges follow the written chain, without caps; N, C: chain ends. Residues, ends and D or L forms follow the SMILES beside them.
reported property: logIC50
Response field accepts a number only; no unit should be typed.

compound CC(C)C[C@@H]1NC(=O)[C@H](CCCNC(=N)N)NC(=O)CNC(=O)[C@H](Cc2c[nH]c3ccccc23)NC(=O)[C@H](CC(=O)O)NC(=O)[C@H](CCC(N)=O)NC(=O)[C@H](Cc2ccccc2)NC(=O)[C@H](C(C)C)NC(=O)[C@@H](NC(=O)[C@@H](N)CO)CSSC[C@@H](C(=O)N2CCC[C@H]2C(N)=O)NC(=O)[C@H](C)NC1=O (H-SCVFQDWGRLACP-NH2; disulfide 2-12) , logIC50 observed: -0.301

New cases:
So, CC[C@H](C)[C@H](NC(C)=O)C(=O)N[C@H]1CSSC[C@@H](C(=O)N[C@H](C(N)=O)[C@H](C)O)NC(=O)[C@H](CCCNC(=N)N)NC(=O)[C@H](Cc2cnc[nH]2)NC(=O)[C@H](Cc2cnc[nH]2)NC(=O)CNC(=O)[C@H](Cc2c[nH]c3ccccc23)NC(=O)[C@H](CC(=O)O)NC(=O)[C@H](CCC(N)=O)NC(=O)[C@H](Cc2c[nH]c3ccccc23)NC(=O)[C@H](C(C)C)NC1=O ? Its logIC50 was 1.39
